Molecular target: T1, GRIP1_2, Q9Y3R0
T1 sequence (Q9Y3R0 145-248, limits assumed, looked up): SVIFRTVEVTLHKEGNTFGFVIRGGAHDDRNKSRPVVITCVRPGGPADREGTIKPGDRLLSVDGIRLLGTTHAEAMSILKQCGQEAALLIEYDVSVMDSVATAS
Assay: holdup assay
Set-up: key: below the threshold = too weak to quantify, mostly under pKd 3.1 to 4
Settings: plain residues with an end cap or a label only (N-terminal biotin on a linker: ado-ado)
experimental endpoint: pKd

Record excerpt, results attached:
[
  {
    "binder": "NTLNRKTTPV [CACNG8, Q8WXS5]",
    "pKd": 3.61
  },
  {
    "binder": "SFISKKEWYV [NECTIN1, Q15223]",
    "pKd": "below the threshold"
  },
  {
    "binder": "IDESKKEWLI [CNTNAP2, Q9UHC6]",
    "pKd": "below the threshold"
  },
  {
    "binder": "ILRKSTTTTV [PRR16, Q569H4]",
    "pKd": "below the threshold"
  }
]

Consider now this further binder.
Read the entry QLSFNTDTLC [ABCA2, Q9BZC7] and write its reported pKd.
below the threshold

All values here come from paper PMC9482650.
